biological target: Left-right determination factor 2 (Homo sapiens); experiment: small molecules binding LEFTY2 protein – biochemical, small-molecule microarray, 635 nm fluorescence scan, primary screen (AID 1110); conditions: higher = more signal
Consider the following molecules; for each one, report its composite z-score.
Numbers only.

Examples with their reported composite z-score follow.
molecule="OCc1ccc(C2=CC(c3cccs3)N(Cc3cccc(OC(F)(F)F)c3)CC2)cc1 (configuration not stated)" experimental_readout="composite z-score" measured_value=0.198
molecule=C[C@@H]1Cc2c(cnc3c2CN(C)CC3)CO1 experimental_readout="composite z-score" measured_value=0.894

Quick request: composite z-score for each listed item, please.
1. CCCc1cc2c(n1Cc1ccco1)C(C)C1CN(C(=O)c3ccccc3)C(C)(C(=O)OC)C21 (configuration not stated)
2. CCCC[C@@H]1C[C@H]1[C@@H](NP(=O)(c1ccccc1)c1ccccc1)c1ccc(Cl)cc1
3. COC(=O)NCC=Cc1nc(CCC=CC(=O)O[C@H]2CC3CC(=O)O[C@@H](C=CCC(C)C)C[C@@H]4CC[C@H](C)[C@@H](C[C@@H](OC)C[C@H](C2)O3)O4)co1
4. COc1cc2c(cc1O)C=[N+](C)CC2
5. COC(=O)[C@@]1(Cc2ccc(F)cc2)[C@H]2c3cc(C(=O)N(C)C)[nH]c3C[C@H]2CN1C(=O)c1ccccc1

1: 0.392; 2: -1.67; 3: -0.107; 4: -0.0898; 5: -0.193

----------
system: Noggin (protein binding on small-molecule microarray); assay: small molecules binding Noggin protein – biochemical, 635/667 nm fluorescence, primary screen (AID 1095); conditions: 635 nm fluorescence, higher = more signal;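 further: score merges 667 nm feature fluorescence with signal to noise over triplicate slides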
experimental readout: composite z-score

Here's what some known entries look like.
compound="C=C(CC1(C(C)NP(=O)(c2ccccc2)c2ccccc2)CC1)c1ccccc1 (centres undefined)" target_desc="Noggin (protein binding on small-molecule microarray)" measured_value=-0.344
compound=CN1CCc2nc(CO)c(CO)cc2C1 target_desc="Noggin (protein binding on small-molecule microarray)" measured_value=0.543
compound=C=C(CC1(CNP(=O)(c2ccccc2)c2ccccc2)CC1)c1ccccc1 target_desc="Noggin (protein binding on small-molecule microarray)" measured_value=-0.682

Now look at this one.
What value of measured composite z-score is listed for CCOC(=O)[C@H]1CC=C2C(=O)Oc3ccccc3[C@@H]21 ? -1.09

----------
target: Follistatin-related protein 3 (Homo sapiens) (UniProt O95633); assay: compounds binding follistatin-related protein 3 – biochemical, small-molecule microarray, 635 nm fluorescence, primary screen (AID 1105); conditions: FSTL3 binding, higher = more signal;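 further: score merges emission near 667 nm and signal to noise per printed spot across three slides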
Sequence (O95633 whole entry, looked up): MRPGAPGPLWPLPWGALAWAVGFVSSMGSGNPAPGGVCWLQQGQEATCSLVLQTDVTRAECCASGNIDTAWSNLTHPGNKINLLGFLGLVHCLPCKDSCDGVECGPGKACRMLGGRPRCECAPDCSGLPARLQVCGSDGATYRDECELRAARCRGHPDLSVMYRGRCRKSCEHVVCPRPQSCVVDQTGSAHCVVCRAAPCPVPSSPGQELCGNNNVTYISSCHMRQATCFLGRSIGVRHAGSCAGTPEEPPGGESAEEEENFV
experimental readout: composite z-score

molecule=C[C@@H]1Cc2c(cnc3c2CN(C)CC3)CO1 experimental_readout="composite z-score" measured_value=0.336

Value sought for every listed molecule: composite z-score.
1. OCc1ccc(C2=CC(C3CC3)N(Cc3sc4ccccc4c3Cl)CC2)cc1 (stereo not given)
2. OCc1ccc(C2=CC(c3cccs3)N(Cc3cccc(OC(F)(F)F)c3)CC2)cc1 (stereo not given)
3. COC(=O)[C@H]1[C@@H](O)[C@@]2(O)c3c(OC)cc(OC)cc3O[C@@]2(c2ccc(OC)cc2)[C@@H]1c1ccccc1
4. CCCc1cc2c(n1Cc1cccc(Cl)c1)C(C)C1CN(C(=O)c3ccccc3)C(C)(C(=O)OC)C21 (stereo not given)
5. CCCc1cc2c(n1CCO)C(C)C1CN(C(=O)c3ccccc3)C(C)(C(=O)OC)C21 (stereo not given)
6. C=C(CC1(CNP(=O)(c2ccccc2)c2ccccc2)CC1)c1ccccc1
7. CN1CCC(c2ccc(CO)cc2)=CC1c1cccs1 (stereo not given)
8. COC(=O)[C@@]1(Cc2ccc(F)cc2)[C@H]2c3cc(C(=O)N(C)C)[nH]c3C[C@H]2CN1C(=O)c1ccccc1

[0.48, 0.107, 0.554, -0.0989, 0.0815, -0.77, 0.152, -0.589]

Would you mind giving composite z-score for every molecule in the list below?
1. CCc1cc2c(nc1CC)CCN(CCC(C)=NOC)C2
2. CN1CCC(c2ccc(CO)cc2)=CC1C1CC1 (stereo not given)
3. COC(=O)NCC=Cc1nc(CCC=CC(=O)O[C@H]2CC3CC(=O)O[C@@H](C=CCC(C)C)C[C@@H]4CC[C@H](C)[C@@H](C[C@@H](OC)C[C@H](C2)O3)O4)co1
4. COC(=O)[C@@]1(Cc2ccccc2)[C@H]2c3cc(C(=O)N(C)C)[nH]c3C[C@H]2CN1C(=O)c1ccccc1

1: 0.763; 2: -0.196; 3: -0.65; 4: -1.32

Dear colleague, could you please provide composite z-score for the molecules listed below?
1. CCCC=C(CCC)[C@@H](NP(=O)(c1ccccc1)c1ccccc1)c1ccccc1
2. CCCc1cc2c(n1Cc1ccc(C)cc1)C(C)C1CN(C(=O)c3ccccc3)C(C)(C(=O)OC)C21 (stereo not given)

0.344
1.12
